In this section, each of the compounds is paired with its reported growth inhibition.
# experimental protocol: NCI Yeast Anticancer Drug Screen. Data for the mec2-1 strain (AID 157)
# stated conditions: S. cerevisiae mec2-1 strain, at 50.0 µM, active compounds read high
About 79,000 compounds went through this panel and 15% of them were active in at least one assay; those are over-represented in the sample as a whole.

| compound | unit symbol | growth inhibition |
| --- | --- | --- |
| Cc1ccc(NC(=O)c2cc3c(cc2Cl)Sc2nccn2S3(=O)=O)cc1 | % | 11.3 |
| C=CCCCCCCCCC(=O)NCc1ccncc1 | % | 29.2 |
| Cc1ccc2nc(N)nc(N)c2c1 | % | 7.15 |
| C/C(=N\NC(=S)N1CCN(c2ccccn2)CC1)c1cccc2cccnc12 | % | -21.1 |
| CCC(C)OC(=O)C1C(=O)CC(c2ccccc2)C1c1ccccc1 (centres undefined) | % | -8.4 |
| CC(C(=O)O)[C@H]1CC[C@H]2[C@@H]3CCC4=CC(=O)CC[C@]4(C)[C@H]3CC[C@]12C (some centres undefined) | % | -5.7 |
| COc1ccc(CCC(=O)O)c(C(CC(=O)O)C(=O)O)c1OS(=O)(=O)c1ccc(C)cc1 (centres undefined) | % | -30.3 |
| O=C1C(c2ccccc2)=C(c2ccccc2)c2ccc(Cl)cc21 | % | 15.6 |
| Cn1nc(-c2ccccc2)c(N=[N+]=[N-])cc1=O | % | 14.6 |
| NC(=O)C1OC1(c1ccccc1)c1ccccc1 (centres undefined) | % | 5.2 |
| CCCCCCOC(=O)/C=C1/OC(=O)c2ccccc21 | % | -15.5 |
| CC(=O)NCC(N)=S | % | -24.1 |
| CCOC(=O)C(=O)C1C(=O)Nc2ccccc21 (centres undefined) | % | -4.9 |
| Oc1cccc2c1N1CCN2CC1 | % | 2.55 |
